- Test system: LHRH binding sites on human ovarian cancer cells (EFO-27)
MEASURED ATTRIBUTE: EC50

// solved cases for EC50 follow
COMPOUND	TARGET UNDER TEST	EC50
N=C(N)NCCC[C@H](NC(=O)[C@H](N)Cc1ccc2ccccc2c1)C(=O)N[C@@H](Cc1c[nH]c2ccccc12)C(=O)N[C@@H](CO)C(=O)N[C@@H](Cc1c[nH]cn1)C(=O)N[C@H](CCCNC(=N)N)C(=O)N[C@@H](Cc1c[nH]c2ccccc12)C(=O)N[C@@H](Cc1ccc(C(=O)c2ccccc2)cc1)C(=O)N1CCC[C@H]1C(=O)NCCOCCNC(=O)CN1CCN(CC(=O)O)CCN(CC(=O)O)CCN(CC(=O)O)CC1 [BRU-2991]	LHRH binding sites on human ovarian cancer cells (EFO-27)	≤ 200 nM
CNCC(=O)N[C@@H](CCCNC(=N)N)C(=O)N[C@@H](Cc1c[nH]c2ccccc12)C(=O)N[C@@H](CO)C(=O)N[C@@H](Cc1c[nH]cn1)C(=O)N[C@H](CCCNC(=N)N)C(=O)N[C@@H](Cc1c[nH]c2ccccc12)C(=O)N[C@@H](Cc1ccc(C(=O)c2ccccc2)cc1)C(=O)N1CCC[C@H]1C(=O)NCCCN1CCN(CCCNC(=O)CN2CCN(CC(=O)O)CCN(CC(=O)O)CCN(CC(=O)O)CC2)CC1 [BRU-3044]	LHRH binding sites on human ovarian cancer cells (EFO-27)	230 to 500 nM
CNCC(=O)N[C@@H](Cc1c[nH]cn1)C(=O)N[C@@H](Cc1c[nH]c2ccccc12)C(=O)N[C@@H](CO)C(=O)N[C@@H](Cc1c[nH]cn1)C(=O)N[C@H](CCCNC(=N)N)C(=O)N[C@@H](Cc1c[nH]c2ccccc12)C(=O)N[C@@H](Cc1ccc(C(=O)c2ccccc2)cc1)C(=O)N1CCC[C@H]1C(=O)NCCNC(=O)CN1CCN(CC(=O)O)CCN(CC(=O)O)CCN(CC(=O)O)CC1 [BRU-3079]	LHRH binding sites on human ovarian cancer cells (EFO-27)	590 to 1000 nM

Then there is this compound:
In: Give the reported EC50 for CNCC(=O)N[C@@H](CCCNC(=N)N)C(=O)N[C@@H](Cc1c[nH]c2ccccc12)C(=O)N[C@@H](CO)C(=O)N[C@@H](Cc1c[nH]cn1)C(=O)N[C@H](CCCNC(=N)N)C(=O)N[C@@H](Cc1c[nH]c2ccccc12)C(=O)N[C@@H](Cc1ccc(C(=O)c2ccccc2)cc1)C(=O)N1CCC[C@H]1C(=O)NCCNC(=O)CN1CCN(CC(=O)O)CCN(CC(=O)O)CCN(CC(=O)O)CC1 [BRU-3103] (system: LHRH binding sites on human ovarian cancer cells (EFO-27)).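 Further: Cell-associated radioactivity on confluent EFO-27 monolayers in 96-well plates, measured by microplate scintillation counting.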
Out: ≤ 200 nM
